Would you mind telling me the reported log10 koff of each entry?
biological target: bovine testes calmodulin (bovine, UniProt P62157 1-149); assay: SPR
Give log10 of koff, with koff taken in s⁻¹.

Some binders with recorded log10 koff:
binder	log10 koff
His-tagged ACA8 N-terminus S19D (6His-1M-I116) (domain or fragment) MTSLLKSSPGRRRGGDVEDGKSEHADSDSDTFYIPSKNASIERLQQWRKAALVLNASRRFRYTLDLKKEQETREMRQKIRSHAHALLAANRFMDMGRESGVEKTTGPATPAGDFGI	-2.49
His-tagged ACA8 N-terminus S22D (6His-1M-I116) (domain or fragment) MTSLLKSSPGRRRGGDVESGKDEHADSDSDTFYIPSKNASIERLQQWRKAALVLNASRRFRYTLDLKKEQETREMRQKIRSHAHALLAANRFMDMGRESGVEKTTGPATPAGDFGI	-2.86
His-tagged ACA8 N-terminus S27D (6His-1M-I116) (domain or fragment) MTSLLKSSPGRRRGGDVESGKSEHADDDSDTFYIPSKNASIERLQQWRKAALVLNASRRFRYTLDLKKEQETREMRQKIRSHAHALLAANRFMDMGRESGVEKTTGPATPAGDFGI	-2.28

Please give log10 koff, item by item, for the list that follows.
1. His-tagged ACA8 N-terminus S57D (6His-1M-I116) (domain or fragment) MTSLLKSSPGRRRGGDVESGKSEHADSDSDTFYIPSKNASIERLQQWRKAALVLNADRRFRYTLDLKKEQETREMRQKIRSHAHALLAANRFMDMGRESGVEKTTGPATPAGDFGI
2. His-tagged ACA8 N-terminus S99D (6His-1M-I116) (domain or fragment) MTSLLKSSPGRRRGGDVESGKSEHADSDSDTFYIPSKNASIERLQQWRKAALVLNASRRFRYTLDLKKEQETREMRQKIRSHAHALLAANRFMDMGREDGVEKTTGPATPAGDFGI
3. His-tagged ACA8 N-terminus S29D (6His-1M-I116) (domain or fragment) MTSLLKSSPGRRRGGDVESGKSEHADSDDDTFYIPSKNASIERLQQWRKAALVLNASRRFRYTLDLKKEQETREMRQKIRSHAHALLAANRFMDMGRESGVEKTTGPATPAGDFGI
4. His-tagged ACA8 N-terminus, wild type (6His-1M-I116) (domain or fragment) MTSLLKSSPGRRRGGDVESGKSEHADSDSDTFYIPSKNASIERLQQWRKAALVLNASRRFRYTLDLKKEQETREMRQKIRSHAHALLAANRFMDMGRESGVEKTTGPATPAGDFGI

OUTPUT:
[-1.59, -2.86, -2.42, -2.61]
